- assayed.target: LdtAb (Acinetobacter baumannii)
- test.name: LC-MS of acyl-enzyme formation
- Format: binding
- cond: covalent, 2 μM enzyme, 200 μM antibiotic, PBS pH 7.4, 22 °C
value.type: % acyl-enzyme after 18 h (%)
A number alone suffices; assume %.

Input C[C@@H](O)[C@H]1C(=O)N2C(C(=O)O)=C(S[C@@H]3CN[C@H](C(=O)Nc4cccc(C(=O)O)c4)C3)[C@H](C)[C@H]12 . Output % acyl-enzyme after 18 h: 97

Input C[C@@H](O)[C@H]1C(=O)N2C(C(=O)O)=C(S[C@@H]3CN[C@H](CNS(N)(=O)=O)C3)[C@H](C)[C@H]12 . Output % acyl-enzyme after 18 h: 21

Input C[C@@H](O)[C@H]1C(=O)N2C(C(=O)O)=C(S[C@@H]3CN[C@H](C(=O)N(C)C)C3)[C@H](C)[C@H]12 . Output % acyl-enzyme after 18 h: 48

Input C[C@@H](O)[C@H]1C(=O)N2C(C(=O)O)=C(SCCN=CN)C[C@H]12 . Output % acyl-enzyme after 18 h: 95
